# Target Desc: Phosphodiesterase 3 (Homo sapiens, UniProt Q14432+Q13370)
# Experiment Description: Inhibition of phosphodiesterase 3
# Format: protein assay, Canis lupus familiaris
Observation Type: IC50

Here's what some known entries look like.
Molecule	Target Desc	IC50
COc1cc2c3c(n1)C(c1ccccc1)=NC(NC(=O)c1cccnc1)C(=O)N3CC2 (single isomer, unassigned)	Phosphodiesterase 3 (Homo sapiens, UniProt Q14432+Q13370)	> 100 µM
COc1cc2c3c(n1)C(c1ccccc1)=NCC(=O)N3CC2	Phosphodiesterase 3 (Homo sapiens, UniProt Q14432+Q13370)	> 100 µM
COc1cc2c3c(n1)C(c1ccccc1)=NC(NC(=O)c1cccnc1)C(=O)N3CC2 (stereo in doubt)	Phosphodiesterase 3 (Homo sapiens, UniProt Q14432+Q13370)	31 µM
COc1cc2c3c(n1)C(c1ccccc1)=N[C@@H](NC(=O)c1cccnc1)C(=O)N3CC2	Phosphodiesterase 3 (Homo sapiens, UniProt Q14432+Q13370)	12 µM

[in] Sample "COc1cc2c3c(c1)C(c1ccccc1)=NCC(=O)N3CC2" — what was its IC50?
[out] 77 µM
